# System: MDA-MB-231
# method-notes: Cytotoxicity against human MDA-MB-231 cells assessed as cell viability at 10 uM after 24 hrs by MTT assay relative to control
# Type: functional
# assay-conditions: MDA-MB-231, 24 h, read-out: Activity
Entries and their viability at 10 µM
# include the unit after the value

Observe how each entry below is paired with its result.
compound: C=C1C(=O)O[C@@H]2[C@H]3O[C@]3(C)CC/C=C(/COC(=O)c3cc(C(F)(F)F)cc(C(F)(F)F)c3)CC[C@@H]12
viability at 10 µM: 8%
--
compound: C=C1C(=O)O[C@@H]2[C@H]3O[C@]3(C)CC/C=C(/COC(C(=O)OCC)c3ccccc3)CC[C@@H]12 (some centres undefined)
viability at 10 µM: 98.8%
--
compound: C=C1C(=O)O[C@@H]2[C@H]3O[C@]3(C)CC/C=C(/COCc3ccccc3)CC[C@@H]12
viability at 10 µM: 100%
--
compound: C=C1C(=O)O[C@@H]2[C@H]3O[C@]3(C)CC/C=C(/C)[C@@H](OC(=O)Nc3cccc4ccccc34)C[C@@H]12
viability at 10 µM: 100%
--
compound: C=C1C(=O)O[C@@H]2[C@H]3O[C@]3(C)CC/C=C(/C)[C@@H](OC(=O)Nc3ccc([N+](=O)[O-])cc3)C[C@@H]12
viability at 10 µM: 98.6%

Query block: Quick one: viability at 10 µM for `C=C1C(=O)O[C@@H]2[C@H]3O[C@]3(C)CC/C=C(/C)[C@@H](OC(=O)c3cccs3)C[C@@H]12` ?
Result block: 97.6%

Query block: Try the compound `C=C1C(=O)O[C@@H]2[C@H]3O[C@]3(C)CC/C=C(/COC(=O)Nc3cccc4ccccc34)CC[C@@H]12`
Result block: 100%

Query block: What do you get for C=C1C(=O)O[C@@H]2[C@H]3O[C@]3(C)CC/C=C(/C)[C@@H](OC(C(=O)OCC)c3ccc(C(F)(F)F)cc3)C[C@@H]12 (some centres undefined) ?
Result block: 77.6%

Query block: Would you kindly repeat that for `C=C1C(=O)O[C@@H]2[C@H]3O[C@]3(C)CC/C=C(/C)[C@@H](OC(=O)c3cc(C(F)(F)F)cc(C(F)(F)F)c3)C[C@@H]12` ?
Result block: 3.6%

Query block: Try `C=C1C(=O)O[C@@H]2[C@H]3O[C@]3(C)CC/C=C(/COC(=O)c3ccc(C(F)(F)F)cc3)CC[C@@H]12` next.
Result block: 75.5%

Query block: Next up: `C=C1C(=O)O[C@@H]2[C@H]3O[C@]3(C)CC/C=C(/COC(=O)Nc3cc(C(F)(F)F)cc(C(F)(F)F)c3)CC[C@@H]12`
Result block: 5.5%

Query block: `C=C1C(=O)O[C@@H]2[C@H]3O[C@]3(C)CC/C=C(/COC(=O)Nc3ccc(F)cc3F)CC[C@@H]12` , same question.
Result block: 88.5%

Query block: Also need `C=C1C(=O)O[C@@H]2[C@H]3O[C@]3(C)CC/C=C(/COC(=O)Nc3ccccc3)CC[C@@H]12` , thanks.
Result block: 97.1%

Query block: Request: `C=C1C(=O)O[C@@H]2[C@H]3O[C@]3(C)CC/C=C(/COC(=O)c3ccc(C(F)(F)F)cc3C(F)(F)F)CC[C@@H]12`
Result block: 20.7%
